I'd appreciate it if you could supply inhibition values for the items below.
target: 5-hydroxytryptamine receptor 1A (Homo sapiens); assay: Antagonist activity at recombinant human 5-HT1A assessed as inhibition of agonist-induced cAMP levels at 10 uM by HTRF assay; type: functional
Give bare numbers, in %.

# annotated cases, reported inhibition shown
So what does the record say about inhibition for CN(CCCNC(=O)c1ccc(Cl)cc1)CCc1ccccc1 ?
17

So what does the record say about inhibition for CN(CCCNC(=O)c1ccc([N+](=O)[O-])cc1)Cc1ccccc1 ?
-6

So what does the record say about inhibition for CN(CCCNC(=O)c1cccc(Br)c1)Cc1ccccc1 ?
7

So what does the record say about inhibition for CN(CCCNC(=O)c1ccc(C(F)(F)F)cc1)Cc1ccccc1 ?
1

So what does the record say about inhibition for CN(CCNC(=O)c1ccc(C#N)cc1)Cc1ccccc1 ?
16

More entries:
So what does the record say about inhibition for CN(CCCNC(=O)c1ccc(Br)cc1)Cc1ccccc1 ?
-5
